Source: ChEMBL document CHEMBL1157436

assay.text: DPPH radical scavenging activity at 10 uM
Format: functional
property.measured: Activity (%)

COc1cc(/C=C/C(=O)c2cc(F)c(F)c(F)c2)ccc1O | 22.9
COc1ccc(/C=C/C(=O)c2ccc(OC)c(F)c2)cc1O | 1.55
COc1ccc(/C=C/C(=O)c2ccccc2)cc1O | 1.26
COc1cccc(/C=C/C(=O)c2cc(F)c(F)c(F)c2)c1O | 3.08

----------
Documented Activity across a set of compounds
assay.text: DPPH radical scavenging activity at 200 uM
Assay type: functional
property.measured: Activity

COc1ccc(/C=C/C(=O)c2cc(F)c(F)c(F)c2)cc1O | 5.29%
Cc1c(C)c2c(c(C)c1O)CCC(C)(C(=O)O)O2 (centres undefined) | 78.2%
COc1cccc(/C=C/C(=O)c2ccccc2)c1O | 11%
COc1cc(/C=C/C(=O)c2ccccc2)ccc1O | 22.6%

----------
assay.text: DPPH radical scavenging activity at 200 uM
Assay type: functional
Threshold check on Activity: at or above 30% gives rule met, strictly below gives rule not met.

COc1ccc(C(=O)/C=C/c2cccc(OC)c2O)cc1F | rule not met
COc1ccc(/C=C/C(=O)c2ccccc2)cc1O | rule not met
COc1cc(/C=C/C=O)ccc1O | rule not met
COc1cccc(/C=C/C(=O)c2cc(F)c(F)c(F)c2)c1O | rule not met
COc1cc(/C=C/C(=O)c2ccc3c(c2)OCO3)ccc1O | rule not met
COc1cc(/C=C/C(=O)c2ccc(OC)c(F)c2)ccc1O | rule met
COc1cccc(/C=C/C(=O)c2ccc3c(c2)OCO3)c1O | rule not met
COc1ccc(/C=C/C(=O)c2ccc(OC)c(F)c2)cc1O | rule not met
Oc1ccc(/C=C/c2cc(O)cc(O)c2)cc1 | rule met
COc1ccc(/C=C/C(=O)c2ccc3c(c2)OCO3)cc1O | rule not met
COc1ccc(/C=C/C(=O)c2ccc3c(c2)OCO3)cc1OC | rule not met
COc1cc(/C=C/C(=O)c2cc(F)c(F)c(F)c2)ccc1O | rule met

----------
assay.text: DPPH radical scavenging activity at 10 uM
Type: functional
Would you mind labelling by Activity? At or over 9% is MET, under is NOT MET.

COc1ccc(/C=C/C(=O)c2cc(F)c(F)c(F)c2)cc1O | NOT MET
Cc1c(C)c2c(c(C)c1O)CCC(C)(C(=O)O)O2 (configuration not stated) | MET
COc1ccc(/C=C/C(=O)c2ccc3c(c2)OCO3)cc1OC | NOT MET
Oc1ccc(/C=C/c2cc(O)cc(O)c2)cc1 | MET
COc1ccc(C(=O)/C=C/c2cccc(OC)c2O)cc1F | NOT MET
COc1cc(/C=C/C=O)ccc1O | NOT MET
COc1cc(/C=C/C(=O)c2ccc3c(c2)OCO3)ccc1O | NOT MET
COc1cc(/C=C/C(=O)c2ccc(OC)c(F)c2)ccc1O | MET
COc1cc(/C=C/C(=O)c2ccccc2)ccc1O | NOT MET
COc1cccc(/C=C/C(=O)c2ccc3c(c2)OCO3)c1O | MET
COc1cccc(/C=C/C(=O)c2ccccc2)c1O | NOT MET

----------
assay.text: Neuroprotective effect against glutamate-induced toxicity in ICR mouse cultured cortical neurons assessed as cell viability at 10 uM
Assay type: functional
cond: Cortical neurone, read-out: Activity
Use viability at 10 µM to assign classes; range list: low end: < 60%; middle: ≥ 60% and < 70%; high end: ≥ 70%

COc1cccc(/C=C/C(=O)c2ccc3c(c2)OCO3)c1O | low end
COc1ccc(C(=O)/C=C/c2cccc(OC)c2O)cc1F | high end
COc1ccc(/C=C/C(=O)c2ccc(OC)c(F)c2)cc1O | high end
COc1cccc(/C=C/C(=O)c2ccccc2)c1O | low end
COc1cc(/C=C/C(=O)c2ccc3c(c2)OCO3)ccc1O | high end
COc1cc(/C=C/C(=O)c2ccccc2)ccc1O | middle
COc1ccc(/C=C/C(=O)c2cc(F)c(F)c(F)c2)cc1O | middle
COc1cc(/C=C/C(=O)c2ccc(OC)c(F)c2)ccc1O | high end
COc1ccc(/C=C/C(=O)c2ccccc2)cc1O | middle

----------
Tested on: BV-2
assay.text: Inhibition of NO production in LPS-induced mouse BV2 microglia cells at 10 uM
Format: functional
// values below are reported Activity
property.measured: Activity (µM)

COc1ccc(/C=C/C(=O)c2ccc3c(c2)OCO3)cc1O | 21.3
COc1ccc(/C=C/C(=O)c2ccccc2)cc1O | 18.93
COc1cc(/C=C/C(=O)c2ccc3c(c2)OCO3)ccc1O | 12.63
COc1ccc(/C=C/C(=O)c2ccc(OC)c(F)c2)cc1O | 23.4
COc1cc(/C=C/C(=O)c2ccc(OC)c(F)c2)ccc1O | 14.21
COc1cc(/C=C/C(=O)c2cc(F)c(F)c(F)c2)ccc1O | 19.82
COc1cc(/C=C/C(=O)c2ccccc2)ccc1O | 16.14
COc1ccc(C(=O)/C=C/c2cccc(OC)c2O)cc1F | 19.55
COc1ccc(/C=C/C(=O)c2ccc3c(c2)OCO3)cc1OC | 25.69
COc1ccc(/C=C/C(=O)c2cc(F)c(F)c(F)c2)cc1O | 25.07
COc1cccc(/C=C/C(=O)c2ccc3c(c2)OCO3)c1O | 22.62
COc1cccc(/C=C/C(=O)c2cc(F)c(F)c(F)c2)c1O | 18.05
COc1cccc(/C=C/C(=O)c2ccccc2)c1O | 17.62

----------
Entries and their viability at 10 µM
assay.text: Neuroprotective effect against glutamate-induced toxicity in ICR mouse cultured cortical neurons assessed as cell viability at 10 uM
Type: functional
cond: Cortical neurone, read-out: Activity
property.measured: viability at 10 µM (%)

COc1ccc(/C=C/C(=O)c2ccc3c(c2)OCO3)cc1OC | 61
COc1cccc(/C=C/C(=O)c2cc(F)c(F)c(F)c2)c1O | 71
COc1ccc(/C=C/C(=O)c2ccc3c(c2)OCO3)cc1O | 69
COc1cc(/C=C/C(=O)c2cc(F)c(F)c(F)c2)ccc1O | 61
